# MEASURED TARGET: T1, RSV F B K68N-N208S (RSV B)
# T1 construct: whole, on cells
# TEST DESCRIPTION: FACS, % binding to RSV F B variants
The reader will find reported % binding values listed item by item below.
All answers are understood in %, so give the number only.

Form: binder = MPK201-v4.1 (antibody, V domains shown) VH: QVQLVQSGAEVKKPGESLKISCQGSGYSFISYWIGWVRQKPGKGLEWMGIIYPFDSETKYSPSFQGHVTFSADKSINTAYVQWSSLRASDTAMYYCARFTFGLAVTTADVSGEGQAFEIWGQGTMVTVSS VL: EIVMMQSPATLSVSPGERATLSCRASQSVAGNLAWYQQRPGQAPRLLVYGASTRASGVPARFSGSGSETEFTLTISSLQSEDFAVYYCHHYSDWPQAFGQGTRLDIK ; % binding = 0.048

Form: binder = MPK65-v2-v3.1 (antibody, V domains shown) VH: QVPLVQSGAEVKKPGESLKISCKGSGYSFISYWIGWVRQMPGKGLEWMGVIYPFDADTKYSPSFQGHVTISADKSSNTAYVQWSSLKASDTAMYYCARFTFGIAVVTDDVSGEGQAFEIWGQGTMVTVSS VL: EIVMMQSPATLSVSPGERATLSCRASQSVAGNLAWYQQRPGQAPRLLIYGASTRATGVPARFSGSGSETEFTLTISSLQSEDFAVYYCHQYSNWPQAFGQGTRLDIK ; % binding = 0.052

Form: binder = MPK201-v1.2 (antibody, V domains shown) VH: EVQLVQSGAEVKKPGESLKISCQGSGYSFINYWIGWVRQKPGKGLEWMGIIYPFDSETKYSPSFQGHVTFSADKSINTAYVQWSSLRASDTAMYYCARFTFGLAVTTADVSGEGQAFEIWGQGTMVTVSS VL: QIVMMQSPATLSVSPGERATLSCRASQSVAGNLAWYQQRPGQAPRLLVYGASTRASGVPARFSGSGSETEFTLTISSLQSEDFAVYYCHHYSDLPQAFGQGTRLDIK ; % binding = 12.1

Form: binder = MPK65-v2-v1.2 (antibody, V domains shown) VH: QVPLVQSGAEVKKPGESLKISCKGSGYSFINYWIGWVRQMPGKGLEWMGVIYPFDSDTKYSPSFQGHVTISADKSSNTAYVQWSSLKASDTAMYYCARFTFGIAVVTDDVSGEGQAFEIWGQGTMVTVSS VL: QIVMMQSPATLSVSPGERATLSCRASQSVAGNLAWYQQRPGQAPRLLIYGASTRATGVPARFSGSGSETEFTLTISSLQSEDFAVYYCHQYSNLPQAFGQGTRLDIK ; % binding = 0.047

Form: binder = MPK176-v4.3 (antibody, V domains shown) VH: QVQLVQSGAEVKKPGASVRVSCKASGYTLTAYGISWVRQAPGQGLEWMGWISPKHGSTHYAQRFQGRVTMTTDTSTSTAYMELRSLRPDDTAVYFCAREGVDIMAVPWYFDYWGQGTLVAVSS VL: SYVLTQPPSVSVAPGQTARISCGGNNIGSKSVHWYQQKPGQAPVVVVYDDSKRPSGIPERFSGSNSGNTATLTISGVEAGDEADYFCQVWDSATDHWVFGGGTKLTVL ; % binding = 59.3

Form: binder = MPK190-v1.3-rIgG1m17,1-LS (antibody, V domains shown) VH: QVQLVESGGGLVKPGGSLTLSCAASGFSISGYGMNWVRQAPGRGLEWVASISASSTYIYYADSMKGRFTISRDNGKTSLYLQMKSLRAEDTAVYYCARAPIEPPYFDLWGRGTLVTVSS VL: QSVLTQPPSVSGAPGQRVTISCTGSSSNIGAGYDVHWYQHLPGKAPKVLIYGNTNRPSVVPDRFSGSNSGASASLAISGLQAEDEADYFCQSYDRRLSGPIFGGGTKLTVLG ; % binding = 61.5

Form: binder = MPK176-v1.3 (antibody, V domains shown) VH: QVQLVQSGAEVKKPGASVRVSCKASGYTLTAYGISWVRQAPGQGLEWMGWISPKHGNTHYAQRFQGRVTMTTDTSTSTAYMELRSLRPDDTAVYFCAREGVDIMAVPWYFDYWGQGTLVAVSS VL: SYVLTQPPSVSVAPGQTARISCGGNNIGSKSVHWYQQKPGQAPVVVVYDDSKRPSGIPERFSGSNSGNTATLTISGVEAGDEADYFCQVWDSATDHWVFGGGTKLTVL ; % binding = 57.9
